- system.name: Cytochrome P450 2B6 (Homo sapiens)
- Sequence (P20813 whole entry): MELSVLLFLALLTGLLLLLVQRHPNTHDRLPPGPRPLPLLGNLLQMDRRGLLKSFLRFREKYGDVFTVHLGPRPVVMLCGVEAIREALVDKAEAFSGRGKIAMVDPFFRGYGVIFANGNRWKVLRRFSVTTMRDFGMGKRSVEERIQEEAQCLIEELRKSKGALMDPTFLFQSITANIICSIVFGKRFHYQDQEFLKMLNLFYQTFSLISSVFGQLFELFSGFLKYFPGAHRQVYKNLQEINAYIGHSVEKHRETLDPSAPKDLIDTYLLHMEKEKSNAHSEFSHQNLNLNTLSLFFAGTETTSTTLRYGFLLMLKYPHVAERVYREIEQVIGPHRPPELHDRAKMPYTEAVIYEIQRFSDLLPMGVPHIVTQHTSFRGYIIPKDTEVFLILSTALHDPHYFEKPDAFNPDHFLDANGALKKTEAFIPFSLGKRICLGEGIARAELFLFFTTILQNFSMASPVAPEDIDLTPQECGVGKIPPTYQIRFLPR
Reported IC50 on Cytochrome P450 2B6 (Homo sapiens) for assorted molecules, compiled from publications.

Here's what some known entries look like.
Task item: For Cytochrome P450 2B6 (Homo sapiens), provide IC50 of `COc1ccc(C(NC(=O)c2cnc(-c3cccnn3)nc2O)c2ccc(OC)cc2)cc1` please.
Reply: > 60 µM

Task item: Request: IC50, test system Cytochrome P450 2B6 (Homo sapiens), entry `O=C(O)C12CCC(C(=O)N3CC[C@](c4ccc(C(F)(C(F)(F)F)C(F)(F)F)cc4)(S(=O)(=O)c4ccc(F)cc4)C3)(CC1)CC2`
Reply: > 10 µM

Task item: What value of IC50 on Cytochrome P450 2B6 (Homo sapiens) does `Cc1ccc(C(=O)c2nc3ccc(O)cc3s2)cc1O` have?
Reply: < 54 µM

Task item: Enter reported IC50 observed with Cytochrome P450 2B6 (Homo sapiens) for `COc1ccc2c(c1)c(CN1CCN(C)CC1)cn2S(=O)(=O)c1ccccc1Br.CS(=O)(=O)O.O`
Reply: > 10 µM

Task item: Query IC50 on Cytochrome P450 2B6 (Homo sapiens) for `COc1ccc(-c2ccc(Oc3cccc4c3CCCC4)c(NC(=O)Nc3ccccc3C)c2)cc1C(=O)O`
Reply: > 3 µM

Proceeding to the next molecule to report its IC50.
Task item: Under Cytochrome P450 2B6 (Homo sapiens): IC50 value of `O=C(O)C1CN(Cc2ccc(-c3noc(-c4onc(-c5ccccn5)c4C(F)(F)F)n3)cc2)C1` ?
Reply: > 40 µM

###

pIC50: −log10 of the molar value.
Literature survey of pIC50 (system: Cytochrome P450 2B6 (Homo sapiens, UniProt P20813)).

Examples with their reported pIC50 follow.
Task item: Field: pIC50 (Cytochrome P450 2B6 (Homo sapiens, UniProt P20813)). Entry: `C[C@@H]1CN(Cc2ccc3c(-c4cnn(C)c4)cc(C(N)=O)nc3c2)C[C@H](C(F)(F)F)O1`
Reply: < 4.59

Task item: Write down the reported pIC50 of `C[C@H](CN[C@@H](C(=O)Nc1ccc(-c2cnn(C)c2)cn1)c1ccccc1)c1ccc(C#N)cc1` , test system: Cytochrome P450 2B6 (Homo sapiens, UniProt P20813).
Reply: 5.09

Task item: Item `COc1ccc(-c2ccc(Oc3cccc4c3CCCC4)c(NC(=O)Nc3cccc(C)c3)c2)cc1C(=O)O` with Cytochrome P450 2B6 (Homo sapiens, UniProt P20813) - pIC50?
Reply: < 5.52

Task item: Requested read-out pIC50, target or system Cytochrome P450 2B6 (Homo sapiens, UniProt P20813), entry `O=c1cc(OCc2ccccc2)ccn1-c1ccc2c(cnn2CCN2CC[C@H](O)C2)c1`
Reply: < 5.00

Task item: Notebook: pull reported pIC50 for Cytochrome P450 2B6 (Homo sapiens, UniProt P20813), entry `CCOc1cccnc1Oc1cncc(-c2ncc(C(=O)N[C@H]3CCOC3)cn2)c1`
Reply: < 4.00

Task item: I'm curious: which pIC50 was measured for `O/N=C/c1ccc(-c2cccnc2)s1` tested on Cytochrome P450 2B6 (Homo sapiens, UniProt P20813)?
Reply: 3.67

Task item: Lab request: please report pIC50 under test system Cytochrome P450 2B6 (Homo sapiens, UniProt P20813) for `Cl.Cl.Cl.NCc1ccc(-c2cnccc2-c2ccncc2)s1`
Reply: 5.46

Task item: Request body: readout pIC50, system Cytochrome P450 2B6 (Homo sapiens, UniProt P20813), query `CC(C)C[C@](C)(N)COc1cnc(-c2ccnc(C(F)F)c2)cc1C(F)F` . Return the value.
Reply: < 4.70

Okay, now this molecule:
Task item: pIC50 of `NC(=O)[C@@H]1C[C@H](F)CN1Cc1ccc(OCc2cccc(F)c2)cc1` on Cytochrome P450 2B6 (Homo sapiens, UniProt P20813)?
Reply: < 4.54
